Biological target: CDK2 (human) (UniProt P24941)
recorded_metric: IC50

> print(dat)
                              line.notation  recorded.metric  recorded.value
1  CCOc1ccccc1NC(=O)c1ccc(C(=O)Nc2ccc(-n3cncn3)c(F)c2)s1             IC50         ≥ 40 µM
2  CN(C(=O)c1ccc(C(=O)Nc2ccc(-n3cncn3)cc2)s1)c1ccccc1             IC50         ≥ 40 µM
3  COc1ccccc1NC(=O)c1ccc(C(=O)Nc2ccc(-n3cncn3)cc2)s1             IC50         ≥ 40 µM
4  COc1ccc(NC(=O)c2ccc(C(=O)Nc3ccc(-n4cncn4)cc3)s2)c(C)c1             IC50          ≤ 1 µM
5  COC[C@H](C)NC(=O)c1ccc(C(=O)Nc2ccc(-n3cncn3)cc2)s1             IC50         ≥ 40 µM

---

pIC50 listing for selected compounds.
Biological target: CDK2 (human)
pIC50: −log10 of the molar value.
recorded_metric: pIC50

> print(dat)
                              line.notation  recorded.value
1  Cn1nc(-c2ccccc2)cc1NC(=O)c1ccc(C(=O)Nc2ccc(-n3cncn3)cc2)s1    4.40 to 6.00
2  O=C(Nc1ccc(-n2cncn2)cc1)c1ccc(C(=O)NC2CC2)s1          ≤ 4.40
3  CNCc1ccc(NC(=O)c2ccc(C(=O)Nc3ccc(-n4cncn4)cc3)s2)c(C)c1    4.40 to 6.00
4  COC(=O)c1cc(OC)ccc1NC(=O)c1ccc(C(=O)Nc2ccc(-n3cncn3)cc2)s1    4.40 to 6.00
5  Cc1cc(CN2CCN(C)CC2)ccc1NC(=O)c1ccc(C(=O)Nc2ccc(-n3cncn3)cc2)s1          ≥ 6.00

---

pIC50: −log10 of the molar value.
Parameter 'readout' = pIC50; parameter 'system' = CDK2 (human) (UniProt P24941).
recorded_metric: pIC50

> print(dat)
                                   compound  recorded.value
1  Cc1cc(CN2CCOCC2)ccc1NC(=O)c1ccc(C(=O)Nc2ccc(-n3cncn3)c(F)c2)s1          ≥ 6.00
2  O=C(Nc1ccc(-n2cncn2)cc1)c1ccc(C(=O)N[C@@H]2CC3CCC2C3)s1 (some centres undefined)          ≤ 4.40
3  NS(=O)(=O)c1ccc(NC(=O)c2ccc(C(=O)Nc3ccc(-n4cncn4)cc3)s2)cc1          ≤ 4.40
4  COc1ccc(NC(=O)c2ccc(C(=O)Nc3ccc(F)cc3-n3cncn3)s2)c(C)c1    4.40 to 6.00
5  O=C(Nc1ccc(-n2cncn2)c(F)c1)c1ccc(C(=O)Nc2ccccc2Oc2ccccc2)s1          ≤ 4.40
6  O=C(Nc1ccc(C(=O)Nc2ccc(-n3cncn3)cc2)s1)c1ccccc1          ≥ 6.00
7  Cc1ccccc1C(=O)Nc1ccc(C(=O)Nc2ccc(-n3cncn3)cc2)s1          ≥ 6.00
8  CN1CCC(NC(=O)c2ccc(C(=O)Nc3ccc(-n4cncn4)cc3)s2)CC1          ≤ 4.40
9  CN1CCC(N(C)C(=O)c2ccc(C(=O)Nc3ccc(-n4cncn4)c(F)c3)o2)CC1          ≤ 4.40

---

IC50 listing for selected compounds.
Target: CDK2 (human)
recorded_metric: IC50

> print(dat)
                                    compound  recorded.metric  recorded.value
 1  COc1ccc(NC(=O)c2ccc(C(=O)N3CCC(c4ccncc4)C3)s2)c(C)c1 (centres undefined)             IC50      1 to 40 µM
 2  Cc1cc(CN(C)C)ccc1NC(=O)c1ccc(C(=O)Nc2ccc(-n3cncn3)cc2)s1             IC50      1 to 40 µM
 3  COc1ccc(C(=O)Nc2ccc(C(=O)N3CCC(c4ccncc4)C3)s2)c(C)c1 (centres undefined)             IC50         ≥ 40 µM
 4  O=C(NCCN1CCOCC1)c1ccc(C(=O)Nc2ccc(-n3cncn3)cc2)s1             IC50         ≥ 40 µM
 5  O=C(Nc1ccc(-n2cncn2)c(F)c1)c1ccc(C(=O)Nc2ccccc2-c2ccccc2)s1             IC50      1 to 40 µM
 6  Cc1ccccc1NC(=O)c1ccc(C(=O)Nc2ccc(-n3cncn3)cc2)s1             IC50          ≤ 1 µM
 7  Cc1cc(OCCN2CCN(C)CC2)ccc1NC(=O)c1ccc(C(=O)Nc2ccc(-n3cncn3)cc2)s1             IC50          ≤ 1 µM
 8  O=C(NCc1ccc2c(c1)CCO2)c1ccc(C(=O)Nc2ccc(-n3cncn3)cc2)s1             IC50         ≥ 40 µM
 9  O=C(Nc1ccc(-n2cncn2)cc1)c1ccc(C(=O)N2CCN(C3CCCC3)CC2)s1             IC50         ≥ 40 µM
10  Cn1nc(-c2cccs2)cc1NC(=O)c1ccc(C(=O)Nc2ccc(-n3cncn3)cc2)s1             IC50         ≥ 40 µM
11  Cc1cc(N2CCN(C)CC2)ccc1NC(=O)c1ccc(C(=O)Nc2ccc(-n3cncn3)cc2)s1             IC50          ≤ 1 µM
12  O=C(Nc1ccccc1)c1ccc(C(=O)Nc2ccc(-n3cncn3)cc2)s1             IC50         ≥ 40 µM
13  Cc1cc(N2CCOCC2)ccc1NC(=O)c1ccc(C(=O)Nc2ccc(-n3cncn3)c(F)c2)s1             IC50          ≤ 1 µM
14  COc1ccc(NC(=O)c2ccc(C(=O)Nc3ccc(-c4ncn(C)n4)cc3)s2)c(C)c1             IC50         ≥ 40 µM
15  COc1ccc(NC(=O)c2ccc(C(=O)N3CCC(Oc4cnccn4)CC3)s2)c(C)c1             IC50      1 to 40 µM
16  Cc1cc(C)nc(NC(=O)c2ccc(C(=O)Nc3ccc(-n4cncn4)cc3)s2)c1             IC50         ≥ 40 µM
17  COc1ccc(NC(=O)c2ccc(C(=O)Nc3ccc(-c4nc[nH]n4)c(F)c3)o2)c(C)c1             IC50          ≤ 1 µM
18  Cn1nc(-c2ccc(Cl)cc2)cc1NC(=O)c1ccc(C(=O)Nc2ccc(-n3cncn3)cc2)s1             IC50         ≥ 40 µM
19  COc1ccc(C(=O)Nc2ccc(C(=O)Nc3ccc(-n4cncn4)cc3)o2)cc1             IC50         ≥ 40 µM
20  O=C(Nc1ccc(-n2cncn2)c(F)c1)c1ccc(C(=O)Nc2ccccc2C(F)(F)F)s1             IC50      1 to 40 µM
21  Cc1cc(O)ccc1NC(=O)c1ccc(C(=O)Nc2ccc(-n3cncn3)cc2)s1             IC50          ≤ 1 µM
22  COc1ccc(C(=O)Nc2ccc(C(=O)N3CCC(c4ccccn4)C3)o2)c(C)c1 (centres undefined)             IC50         ≥ 40 µM
23  Cc1cc(Cn2ccnc2)ccc1NC(=O)c1ccc(C(=O)Nc2ccc(-n3cncn3)cc2)s1             IC50          ≤ 1 µM
24  CN(C(=O)c1ccc(C(=O)Nc2ccc(-n3cncn3)cc2)s1)C1CCCCC1             IC50          ≤ 1 µM
25  C[C@H](O)CNC(=O)c1ccc(C(=O)Nc2ccc(-n3cncn3)cc2)s1             IC50         ≥ 40 µM
26  COc1ccc(NC(=O)c2ccc(C(=O)Nc3cccc(-c4cnco4)c3)s2)c(C)c1             IC50         ≥ 40 µM
27  CN1CCCC1CCNC(=O)c1ccc(C(=O)Nc2ccc(-n3cncn3)cc2)s1 (centres undefined)             IC50         ≥ 40 µM
28  COc1ccc(NC(=O)c2ccc(C(=O)Nc3ccc(-c4c(C)noc4C)cc3)s2)c(C)c1             IC50         ≥ 40 µM
29  COc1cccc(C2CCN(C(=O)c3ccc(C(=O)Nc4ccc(-n5cncn5)cc4)s3)C2)c1 (centres undefined)             IC50         ≥ 40 µM
30  O=C(Nc1ccc(-n2cncn2)cc1)c1ccc(C(=O)NC2CCCC2)s1             IC50      1 to 40 µM
31  O=C(Nc1ccc(-n2cncn2)cc1)c1ccc(C(=O)Nc2nccs2)s1             IC50         ≥ 40 µM
32  CC(C)[C@@H](CO)NC(=O)c1ccc(C(=O)Nc2ccc(-n3cncn3)cc2)s1             IC50         ≥ 40 µM
33  COc1ccc(NC(=O)c2ccc(C(=O)Nc3ccc(-n4cncn4)cc3)o2)cc1             IC50          ≤ 1 µM
34  O=C(NCCc1c[nH]cn1)c1ccc(C(=O)Nc2ccc(-n3cncn3)cc2)s1             IC50         ≥ 40 µM
35  COc1ccc(NC(=O)c2ccc(C(=O)Nc3ccc4nccnc4c3)s2)c(C)c1             IC50         ≥ 40 µM
36  COc1ccc(NC(=O)c2ccc(C(=O)Nc3ccc(Cn4ccnc4)cc3)s2)c(C)c1             IC50         ≥ 40 µM
37  O=C(Nc1ccc(C(=O)Nc2ccc(-n3cncn3)cc2)o1)c1ccccc1             IC50         ≥ 40 µM
38  COc1ccc(C(=O)Nc2ccc(C(=O)N3CCC(c4ccncc4)C3)o2)c(C)c1 (centres undefined)             IC50         ≥ 40 µM
39  COc1ccc(NC(=O)c2ccc(C(=O)Nc3ccc(OCCN(C)C)cc3)s2)c(C)c1             IC50         ≥ 40 µM
